Hello, the source for this data is ChEMBL document CHEMBL1201862, in case you need it.

Tested on: SW-620
experiment: NCI tumour cell line growth inhibition, 48 h
The source made the active and inactive calls. No stated cut-off is given here; in the data, active = GI50 up to about 1.1 µM and inactive = higher.
property-name: GI50

{"molecule": "COC1OCC(O)C(NC(=O)N(C)N=O)C1O (stereo unspecified)", "target-under-test": "SW-620", "GI50": "> 100 µM (inactive)"}

So, C/C(=N\NC(=O)CC(=O)Nc1ccc(C)cc1)c1cc2ccccc2oc1=O ? Its GI50 was > 100 µM (inactive)

---

The entries below come with measured GI50 values attached.
System: MDA-MB-231
experiment: NCI tumour cell line growth inhibition, 48 h
The source made the active and inactive calls. Cut-off read from the data, not from the text of the source: active = GI50 up to about 1.1 µM and inactive = higher.

{"molecule": "Cc1ccc(S(=O)(=O)Nn2c(O)c(C#N)c(-c3ccc(Cl)cc3)c(C#N)c2=O)cc1", "GI50": "> 100 µM (inactive)"}
{"molecule": "CC(=O)OCC1OC(Sc2nc(-c3ccccc3)c(C#N)c(=O)n2C2OC(COC(C)=O)C(OC(C)=O)C(OC(C)=O)C2OC(C)=O)C(OC(C)=O)C(OC(C)=O)C1OC(C)=O (centres undefined)", "GI50": "> 100 µM (inactive)"}
{"molecule": "N#Cc1c(=O)c2ccccc2n2c1[nH]c1ccccc12", "GI50": "54.6 µM (inactive)"}
{"molecule": "C/C=C(\\C)c1cc(=O)c2c(C)cc3c(c2o1)C(=O)c1c(O)c(C2CC(C)(N(C)C)C(OC(C)=O)C(C)O2)cc(C2CC(N(C)C)C(O)C(C)O2)c1C3=O (centres undefined)", "GI50": "1.14 µM (inactive)"}
{"molecule": "C=C(C)C#CC(O)(C(=O)OC1CCN(C)CC1)C(C)C (centres undefined)", "GI50": "> 100 µM (inactive)"}

Now take the following molecule into account.
Just so you know, measured GI50 for O=C(O)/C=C(/CC(=O)O)C(=O)O came out at 21.3 µM (inactive)
